Data origin: paper PMC6678097

Biological target: UniProtKB P00338
Test: Intracellular LDH activity in lysates of MA-treated cancer cells
Format: cell-based
Parameters: One microgram of total protein from cell or tissue lysates was used for intracellular or in vivo LDH assays; endogenous in cells; host or cells: WiDr, DLD-1, RKO, HT29, MCF7, Huh-7, HepG2, Hep3B, HCC-95, NCI-H1793
Details: HT29 cells; normoxic
OBSERVED_PROPERTY: IC50

INPUT: Tell me IC50 reported for `C[C@H](Cc1ccc2c(c1)OCO2)[C@@H](C)Cc1ccc2c(c1)OCO2`
OUTPUT: 48.4 µM

###

Target: LDHA (Homo sapiens, UniProt P00338)
Assay: Intracellular LDH activity in lysates of MA-treated cancer cells
Format: cell-based
Design: One microgram of total protein from cell or tissue lysates was used for intracellular or in vivo LDH assays; endogenous in cells; host or cells: WiDr, DLD-1, RKO, HT29, MCF7, Huh-7, HepG2, Hep3B, HCC-95, NCI-H1793
Conditions: HepG2 cells; normoxic
OBSERVED_PROPERTY: IC50 (µM)
Give the quantity in µM, number only.

INPUT: Tell me IC50 reported for C[C@H](Cc1ccc2c(c1)OCO2)[C@@H](C)Cc1ccc2c(c1)OCO2 [MA, bis(3,4-methylenedioxy)-8,8’-lignan]
OUTPUT: 101

###

Target: UniProtKB P00338
Test: Intracellular LDH activity in lysates of MA-treated cancer cells
Type: cell-based
Design: One microgram of total protein from cell or tissue lysates was used for intracellular or in vivo LDH assays; endogenous in cells; host or cells: WiDr, DLD-1, RKO, HT29, MCF7, Huh-7, HepG2, Hep3B, HCC-95, NCI-H1793
Settings: WiDr cells; normoxic
OBSERVED_PROPERTY: IC50 (µM)
Give the quantity in µM, number only.

INPUT: Tell me IC50 reported for C[C@H](Cc1ccc2c(c1)OCO2)[C@@H](C)Cc1ccc2c(c1)OCO2 [MA, bis(3,4-methylenedioxy)-8,8’-lignan]
OUTPUT: 61.9

###

Test system: WiDr
Assay: Cell viability, MTT assay
Type: cell-based
Conditions: Homo sapiens, normoxic
OBSERVED_PROPERTY: pIC50
In simple prose, pIC50 is minus the logarithm base ten of a concentration in moles per litre.

INPUT: Tell me pIC50 reported for C[C@H](Cc1ccc2c(c1)OCO2)[C@@H](C)Cc1ccc2c(c1)OCO2 [MA, bis(3,4-methylenedioxy)-8,8’-lignan]
OUTPUT: 4.76

###

Target: purified recombinant LDHA (Homo sapiens)
Experiment: In vitro LDH activity assay with purified recombinant LDHA
Details: purified recombinant LDHA; read-out: inhibitory concentration (IC50) for LDHA activity
OBSERVED_PROPERTY: pIC50
In simple prose, pIC50 is minus the logarithm base ten of a concentration in moles per litre.

INPUT: Tell me pIC50 reported for C[C@H](Cc1ccc2c(c1)OCO2)[C@@H](C)Cc1ccc2c(c1)OCO2 [MA, bis(3,4-methylenedioxy)-8,8’-lignan]
OUTPUT: 4.08

###

Target: LDHA (Homo sapiens, UniProt P00338)
Experiment: Surface plasmon resonance (SPR) biosensor analysis of LDHA binding
Parameters: Full-length LDHA (residues 1–331) was obtained from cDNA by polymerase chain reaction (PCR); inferred from pET-28a vector and Ni-NTA purification; made in house; host or cells: E. coli BL21 (DE3)
Conditions: 25 °C, read-out: apparent KD of binding to LDHA
OBSERVED_PROPERTY: Kd (µM)
Give the quantity in µM, number only.

INPUT: Tell me Kd reported for C[C@H](Cc1ccc2c(c1)OCO2)[C@@H](C)Cc1ccc2c(c1)OCO2 [MA, bis(3,4-methylenedioxy)-8,8’-lignan]
OUTPUT: 29
